- target.under.test: DNA polymerase iota (Homo sapiens)
- assay.method.text: qHTS for Inhibitors of Polymerase Iota: Confirmatory Assay for Cherry-picked Compounds (AID 720496); further: potency means the concentration at half of the fitted maximal effect
- condition: Pol iota primer extension, TAMRA/BHQ fluorescence
- Text: DNA polymerases, such as polymerase iota (Pol iota), are involved in DNA repair. Pol iota specifically plays an important role in translesion synthesis, where the normal high-fidelity DNA polymerases cannot proceed and DNA synthesis stalls. […] A 1536-well format, fluorescence based, high-throughput screen (AID 588590) is developed in collaboration with the National Institute of Child Health & Human Development (NICHD) to screen for inhibitors of the Pol eta enzyme. […]
Some of the results follow. The source made the active and inactive calls. The call rests on the fitted dose curve; in most records, active means well fitted inhibition curve with a large enough effect; inconclusive means small, poorly fitted or top-dose-only effect, or another doubt; inactive means no such curve, though single readings can be large or run the other way.
parameter.measured: Potency

- molecule: "COc1ccc(-c2nn(-c3ccccc3)cc2/C=C2/SC(=S)N(CCCC(=O)O)C2=O)c(C)c1"
  Potency: "75.2 µM (active)"
- molecule: "COc1ccc(S(=O)(=O)/N=C2\\C=C(NS(=O)(=O)c3ccccc3)C(=O)c3ccccc32)cc1"
  Potency: "67 µM (active)"
- molecule: "Cc1ccc(N=C2NC(=O)/C(=C/C=C/c3ccco3)S2)cc1C"
  Potency: "47.4 µM (active)"
- molecule: "Nc1ccc2nc3c(=O)[nH]c(=S)[nH]c3nc2c1"
  Potency: "33.6 µM (active)"
- molecule: "NC1=CC(=O)C(=O)c2cccnc21"
  Potency: "42.3 µM (active)"

Lab request: please report Potency under test system DNA polymerase iota (Homo sapiens) for `COC(=O)c1ccc(COc2ccc(/C=C/C(=O)c3ccc(OC)c(CSCC(=O)O)c3)cc2OC)cc1`
75.2 µM (active)

Lab request: please report Potency under test system DNA polymerase iota (Homo sapiens) for `O=c1ccc2c(-c3ccccc3S(=O)(=O)O)c3ccc(O)c(O)c3oc-2c1O`
0.597 µM (active)

----------
- target.under.test: Cytochrome P450 2D6 (Homo sapiens) (UniProt P10635)
- Sequence (P10635 whole entry, looked up): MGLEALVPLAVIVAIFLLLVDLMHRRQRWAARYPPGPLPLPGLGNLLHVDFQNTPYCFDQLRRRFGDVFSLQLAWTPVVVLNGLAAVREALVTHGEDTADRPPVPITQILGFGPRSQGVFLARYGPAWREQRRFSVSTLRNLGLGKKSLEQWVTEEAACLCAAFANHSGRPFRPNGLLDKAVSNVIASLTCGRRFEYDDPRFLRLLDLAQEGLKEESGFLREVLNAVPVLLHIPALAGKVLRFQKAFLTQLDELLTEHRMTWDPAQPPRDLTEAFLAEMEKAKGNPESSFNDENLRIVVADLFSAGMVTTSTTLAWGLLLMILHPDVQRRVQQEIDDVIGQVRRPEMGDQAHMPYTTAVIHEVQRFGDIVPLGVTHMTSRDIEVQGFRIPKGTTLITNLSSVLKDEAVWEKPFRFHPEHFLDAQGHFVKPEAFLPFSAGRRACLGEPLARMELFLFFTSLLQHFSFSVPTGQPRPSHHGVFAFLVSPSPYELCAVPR
- assay.method.text: qHTS Assay for Inhibitors and Substrates of Cytochrome P450 2D6 (AID 891); further: nearly all actives have a fitted effect of over 60% in size
- condition: recombinant CYP2D6, luciferin-ME EGE luminescence; series mostly up to 57.1 µM
Results filed as inconclusive are left out. The source made the active and inactive calls. Calls follow the shape of the dose curve; as a rule, active = well fitted inhibition curve with a large enough effect; inconclusive = small, poorly fitted or top-dose-only effect; inactive = no such curve, though single readings can be large or run the other way.
Reply using exactly one outcome from label 1 for active, label 0 for inactive

Past entries and their recorded results:
- molecule: "N#Cc1cccc(-c2nc(NCCN3CCOCC3)c3ccccc3n2)c1"
  class: "label 1"
- molecule: "COc1ccc2[nH]cc(CCNc3ncncc3-c3ccccc3Cl)c2c1"
  class: "label 1"
- molecule: "CCNc1ncc2nc(-c3cccs3)c(=O)n(CCC#N)c2n1"
  class: "label 1"
- molecule: "Cc1cccc(CNc2ncncc2-c2ccccc2C)c1"
  class: "label 1"
- molecule: "Cc1cc(N)c2ccccc2[n+]1CCCCCCCCCCCCCC[n+]1c(C)cc(N)c2ccccc21"
  class: "label 1"
- molecule: "COc1ccc2[nH]cc(CCNc3ncncc3-c3ccccc3OC)c2c1"
  class: "label 1"
- molecule: "O=C1C=C(NCCc2cc(Br)c(O)c(Br)c2)C(=O)c2ncccc21"
  class: "label 1"
- molecule: "COc1ccccc1CNc1cc(-c2cccnc2)ncn1"
  class: "label 1"
- molecule: "COc1cc2cc3c4c(cc(OC)c(OC)c4c2cc1OC)CCN3C"
  class: "label 1"
- molecule: "COc1cccc(-c2cncnc2NCCc2c[nH]c3ccc(OC)cc23)c1"
  class: "label 1"

Which result was noted for this molecule in the test: `COc1ccccc1CNc1ncncc1-c1ccccc1C(F)(F)F`
label 1

Which result was noted for this molecule in the test: `O=c1ccc2cc3ccoc3cc2o1`
label 1

Which result was noted for this molecule in the test: `COc1ccc(-c2oc3ccc(C)cc3c(=O)c2O)cc1OC`
label 0

----------
- assay.method.text: qHTS Counterscreen for compound interference against the NCATS DSHEA and TCM libraries (AID 1919978);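 further: compounds preincubated with 1 µM D-luciferin or buffer before detection reagent; % of control where 0% means no effect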
- condition: firefly luciferase detection reagent interference, luminescence
Some compounds, each annotated with its measured max response.
Reply with just the number (in %).

The following compounds have reported results that may help.
- compound: "C=C1C[C@@]23CC[C@H]4[C@@](C)(CCC[C@@]4(C)C(=O)O[C@@H]4O[C@H](CO)[C@@H](O)[C@H](O)[C@H]4O[C@@H]4O[C@H](CO)[C@@H](O)[C@H](O)[C@H]4O)[C@@H]2CC[C@]1(O[C@@H]1O[C@H](CO)[C@@H](O)[C@H](O)[C@H]1O[C@@H]1O[C@H](CO)[C@@H](O)[C@H](O)[C@H]1O)C3"
  test.value: 4.27
- compound: "CC(=O)OC1CC2CCC1(C)C2(C)C (stereo not drawn)"
  test.value: 3.9

Now consider a different compound.
If you can, please state the reported max response value of `O=C(OC[C@H]1O[C@@H](OC(=O)c2cc(O)c(O)c(O)c2)[C@H](OC(=O)c2cc(O)c(O)c(O)c2)[C@@H](OC(=O)c2cc(O)c(O)c(O)c2)[C@@H]1O)c1cc(O)c(O)c(O)c1` .
-2.07

----------
- target.under.test: Rap guanine nucleotide exchange factor 3 (Homo sapiens)
- assay.method.text: Counterscreen qHTS for antagonist of cAMP-regulated guanine nucleotide exchange factor 3 (EPAC1) (AID 1645888);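 further: fluorescence loss as bound BODIPY-GDP is released from Rap1B; % of control where 0% means no effect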
- condition: Rap1B-BODIPY-GDP nucleotide exchange, fluorescence; series mostly up to 154 µM
Records with an inconclusive call do not appear. Activity calls are given as the source filed them. Calls come from the whole dose curve; as a rule, active = well fitted inhibition curve with a large enough effect; inconclusive = small, poorly fitted or top-dose-only effect; inactive = no such curve, though single readings can be large or run the other way.

- molecule: "c1ccc(C(c2ccccc2)c2ccn[nH]2)cc1"
  activity change, negative = inhibition: "-9.38% [at 30.8 µM] (inactive)"
- molecule: "CCOC(=O)Cc1cc(=O)n2[nH]c(-c3ccccc3)c(-c3ccccc3)c2n1"
  activity change, negative = inhibition: "inactive"
- molecule: "CCc1nnc(NS(=O)(=O)c2ccc(NCc3cc(Cl)ccc3O)cc2)s1"
  activity change, negative = inhibition: "-8.7% [at 30.8 µM] (inactive)"
- molecule: "Cc1nc2ccccc2n2c(O)c(CC(=O)O)cc12"
  activity change, negative = inhibition: "inactive"

----------
- target.under.test: Rap guanine nucleotide exchange factor 3 (Homo sapiens) (UniProt O95398)
- Sequence (O95398 whole entry, looked up): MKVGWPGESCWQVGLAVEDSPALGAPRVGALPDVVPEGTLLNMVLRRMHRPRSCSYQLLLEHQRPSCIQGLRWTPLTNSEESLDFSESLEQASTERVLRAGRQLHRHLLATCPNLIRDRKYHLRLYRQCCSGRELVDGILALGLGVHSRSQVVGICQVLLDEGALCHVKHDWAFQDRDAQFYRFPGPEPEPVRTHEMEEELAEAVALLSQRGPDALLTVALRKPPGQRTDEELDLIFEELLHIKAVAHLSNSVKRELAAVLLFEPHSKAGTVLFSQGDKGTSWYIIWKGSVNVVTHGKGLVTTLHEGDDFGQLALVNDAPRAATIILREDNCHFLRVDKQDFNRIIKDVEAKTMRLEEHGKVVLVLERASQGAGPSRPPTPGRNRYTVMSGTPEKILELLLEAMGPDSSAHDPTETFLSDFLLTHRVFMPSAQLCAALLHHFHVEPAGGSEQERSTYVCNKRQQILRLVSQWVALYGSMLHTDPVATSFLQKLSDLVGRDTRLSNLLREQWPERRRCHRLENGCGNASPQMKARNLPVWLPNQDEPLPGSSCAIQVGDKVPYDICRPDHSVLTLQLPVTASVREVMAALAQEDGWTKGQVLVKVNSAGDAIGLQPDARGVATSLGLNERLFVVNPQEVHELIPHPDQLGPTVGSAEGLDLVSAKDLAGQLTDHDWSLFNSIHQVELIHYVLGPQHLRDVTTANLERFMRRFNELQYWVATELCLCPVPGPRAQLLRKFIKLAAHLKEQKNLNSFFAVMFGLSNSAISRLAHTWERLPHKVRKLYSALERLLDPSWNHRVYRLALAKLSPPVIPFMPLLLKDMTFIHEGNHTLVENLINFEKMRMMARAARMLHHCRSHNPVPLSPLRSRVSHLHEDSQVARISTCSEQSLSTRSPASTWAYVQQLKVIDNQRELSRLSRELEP
- assay.method.text: Counterscreen qHTS for antagonist of cAMP-regulated guanine nucleotide exchange factor 3 (EPAC1) (AID 1645888);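 further: fluorescence loss as bound BODIPY-GDP is released from Rap1B; % of control where 0% means no effect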
- condition: Rap1B-BODIPY-GDP nucleotide exchange, fluorescence; series mostly up to 154 µM
Inconclusive results are not listed. Activity calls are given as the source filed them. The call rests on the fitted dose curve; in most records, active means well fitted inhibition curve with a large enough effect; inconclusive means small, poorly fitted or top-dose-only effect; inactive means no such curve, though single readings can be large or run the other way.
parameter.measured: activity change, negative = inhibition

- molecule: "NC(N)=N/N=C/c1ccc(OCc2ccc(Cl)cc2Cl)cc1"
  activity change, negative = inhibition: "10.5% [at 30.8 µM] (inactive)"
- molecule: "O=C(CSc1nc(O)cc(=O)n1-c1ccccc1)Nc1ccc2c3c(cccc13)CC2"
  activity change, negative = inhibition: "-9.82% [at 30.8 µM] (inactive)"
- molecule: "COc1c(O)cc2oc(-c3ccc(O)c(O)c3)cc(=O)c2c1O"
  activity change, negative = inhibition: "inactive"
- molecule: "CN1CCS/C1=C\\C=C1/SC(=S)N(CC(=O)O)C1=O"
  activity change, negative = inhibition: "inactive"
- molecule: "CCC1=NN2C(=N)/C(=C/c3ccc(OS(=O)(=O)c4ccccc4)cc3)C(=O)N=C2S1"
  activity change, negative = inhibition: "inactive"

If you can, please state the reported activity change, negative = inhibition value of `Nc1ccccc1Oc1ccc2ccccc2c1` .
inactive

----------
- assay.method.text: MultiTox-Fluor Cytotoxicity Assay - LYMP1-001 - Dead Cells (AID 946);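 further: cells exposed to compound for 16 h; 0% = DMSO and 100% = tetraoctylammonium bromide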
- condition: LYMP1-001 lymphoblastoid cells, dead-cell protease fluorescence; series mostly up to 92.2 µM
Inconclusive results are not listed. Active and inactive are the calls of the source. The call rests on the fitted dose curve; in most records, active means well fitted cell-killing curve with a large enough effect; inconclusive means small, poorly fitted or top-dose-only effect, or effect the other way; inactive means flat fitted curve, though single readings scatter.
parameter.measured: outcome

The following molecules have reported results that may help.
- molecule: "O=C(O)c1ccccc1"
  parameter.measured: "outcome"
  test.value: "inactive"
- molecule: "C/C=C\\c1ccc(OC)cc1"
  parameter.measured: "outcome"
  test.value: "inactive"
- molecule: "Clc1cc(Cl)c(Cl)cc1Cl"
  parameter.measured: "outcome"
  test.value: "inactive"
- molecule: "CC1=CC(C)(C)Nc2ccccc21"
  parameter.measured: "outcome"
  test.value: "inactive"
- molecule: "C=CCOC(=O)c1ccccc1C(=O)OCC=C"
  parameter.measured: "outcome"
  test.value: "inactive"

If you can, please state the reported outcome value of `COc1ccc2nc(N)sc2c1` .
inactive

If you can, please state the reported outcome value of `COc1ccc(/C=C/c2cc(OC)cc(=O)o2)cc1` .
inactive

If you can, please state the reported outcome value of `CN(C)CCCCCCN(C)C` .
inactive

----------
- target.under.test: Rap guanine nucleotide exchange factor 3 (Homo sapiens) (UniProt O95398)
- assay.method.text: Confirmatory qHTS for antagonist of cAMP-regulated guanine nucleotide exchange factor 3 (EPAC1) (AID 1645880);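 further: plate controls were DMSO only for no effect and full effect of the ATA control for full effect; nearly all actives have a fitted effect of over 55% in size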
- condition: EPAC1 Rap1B-BODIPY-GDP exchange, fluorescence
Records with an inconclusive call do not appear. Activity calls are given as the source filed them. Calls come from the whole dose curve; as a rule, active = well fitted inhibition curve with a large enough effect; inconclusive = small, poorly fitted or top-dose-only effect; inactive = no such curve, though single readings can be large or run the other way.
parameter.measured: outcome

The following molecules have reported results that may help.
- molecule: "COCCCn1c(=N)c(C(=O)NCc2cccnc2)cc2c(=O)n3cccc(C)c3nc21"
  outcome: "inactive"
- molecule: "CCOC(=O)C1Oc2ccccc2C(c2ccc(F)cc2)=C1C(=O)OC (stereo unspecified)"
  outcome: "inactive"
- molecule: "OC(c1ccc2ccccc2n1)c1c(Cl)cccc1Cl (stereo unspecified)"
  outcome: "inactive"
- molecule: "CN1/C(=C\\C=C(/C#N)C(=O)Nc2ccc(Cl)cc2)C(C)(C)c2ccccc21"
  outcome: "inactive"
- molecule: "Cn1cc([C@]2(O)C(=O)Nc3c(F)cccc32)c2ccccc21"
  outcome: "inactive"

If you can, please state the reported outcome value of `CCCSc1nc(C)cc(C)c1S(=O)(=O)c1ccccc1C` .
inactive

If you can, please state the reported outcome value of `O=C1CCc2cc(S(=O)(=O)NCc3ccc(F)cc3)cc3c2N1CC3` .
inactive

If you can, please state the reported outcome value of `CCOc1ccccc1Oc1nc(C)nc2c1oc1ccccc12` .
inactive

If you can, please state the reported outcome value of `CCCCN(CCC#N)c1ccc(/C=C/c2ccnc3ccccc23)cc1` .
inactive

If you can, please state the reported outcome value of `Cc1ccc2oc(=O)c(/C=C(\O)c3ccco3)nc2c1` .
inactive

If you can, please state the reported outcome value of CC(Oc1ccc(Cl)cc1Cl)c1ccn[nH]1 (stereo unspecified) .
inactive
